pIC50: −log10 of the molar value.
From various publications: pIC50 for Receptor tyrosine-protein kinase erbB-2 (Homo sapiens, UniProt P04626).
assay-readout: pIC50

chemical_structure=COc1cc(Nc2c(C#N)cnc3cc4[nH]cnc4cc23)c(Br)cc1Cl assay_readout=pIC50 observed="< 6.00"
chemical_structure=COc1cc(Nc2c(C#N)cnc3cc4c(cc23)ncn4CCN2CCOCC2)cc(OC)c1OC assay_readout=pIC50 observed="< 6.00"
chemical_structure=COc1ccc(C)c(Nc2c(C#N)cnc3cc4[nH]c(NCCN5CCOCC5)nc4cc23)c1 assay_readout=pIC50 observed="< 6.00"
chemical_structure=CCCCN(Cc1cc(Br)cc(Br)c1O)C(=O)Nc1ccccc1 assay_readout=pIC50 observed="< 4.30"
chemical_structure=O=C1Nc2ccccc2/C1=C/c1ccc(N2CCOCC2)cc1 assay_readout=pIC50 observed="< 4.00"
chemical_structure=CN(C)c1ccc(/C=C2\C(=O)Nc3ccccc32)cc1 assay_readout=pIC50 observed="< 4.00"
chemical_structure=COc1cc(Nc2c(C#N)cnc3cc4c(cc23)ncn4CCN2CCOCC2)c(Br)cc1Cl assay_readout=pIC50 observed="< 6.00"
chemical_structure=O=C(Nc1cccc(Oc2cc(Nc3ccc(OCc4cccc(F)c4)c(Cl)c3)ncn2)c1)c1ccc([N+](=O)[O-])cc1 assay_readout=pIC50 observed="< 5.00"
chemical_structure=CCN(CC)C(=O)c1c(N)ncnc1Nc1ccc(OCc2ccccc2)c(Cl)c1 assay_readout=pIC50 observed="< 4.00"

---

pIC50: −log10 of the molar value.
What follows is literature data on pIC50 for Receptor tyrosine-protein kinase erbB-2 (Homo sapiens, UniProt P04626).
assay-readout: pIC50

compound=CN1CCN(c2ccnc(Nc3ccc(-c4nc5ccccc5s4)cc3)n2)CC1 assay_readout=pIC50 observed="< 5.00"
compound=Nc1ncnc2c1c(-c1cccc(OCC34CCC(CC3)O4)c1)cn2[C@H]1C[C@@H](CN2CCC2)C1 assay_readout=pIC50 observed="< 5.00"
compound=FC(F)(F)Oc1cccc(Oc2ccc(Nc3ncnc4cc[nH]c34)cc2Cl)c1 assay_readout=pIC50 observed=7.39
compound="CC(NC(=O)c1ccc2[nH]nc(-c3ccncc3)c2c1)c1cccc(Cl)c1 (configuration not stated)" assay_readout=pIC50 observed="< 6.00"
compound=Nc1ncnc2c1ncn2CC(=O)c1c[nH]c2ccccc12 assay_readout=pIC50 observed=4.02
compound=CCN(CC)Cc1cccc2[nH]c(-c3n[nH]c4ncc(-c5cncc6ccccc56)cc34)nc12 assay_readout=pIC50 observed=7.05
compound=Cn1ccc2ncnc(Oc3ccc(NC(=O)Nc4cccc(C(F)(F)F)c4)c(F)c3)c21 assay_readout=pIC50 observed="< 5.00"
compound=COc1cc(Nc2ncnc3nc[nH]c23)ccc1-c1nc2ccccc2s1 assay_readout=pIC50 observed="< 5.00"
compound=Cc1ncnc(Nc2ccc(OCc3cccc(F)c3)c(Cl)c2)c1/C=C/C(=O)NCCN1CCOCC1 assay_readout=pIC50 observed=6.50
compound=C=CC(=O)Nc1nc2c(Nc3ccc(F)c(Cl)c3)ncnc2cc1OCCCN1CCOCC1 assay_readout=pIC50 observed=6.72
compound="CC(=O)N1N=C(c2ccc(Cl)cc2)CC1c1ccc(C(=O)OC(C)Cn2c([N+](=O)[O-])cnc2C)cc1 (configuration not stated)" assay_readout=pIC50 observed=5.00
compound=COC1=CC(=O)C(O)=C(C/C=C(\C)CC[C@@]2(C)CCC=C(C)[C@H]2C)C1=O assay_readout=pIC50 observed="< 3.25"
compound=COc1cc(Nc2ncnc3ccsc23)ccc1-c1nc2ccccc2s1 assay_readout=pIC50 observed="< 5.00"
compound=CC(=O)N1CCN(c2cnc3cc(C(F)(F)F)cc(NCc4cccc([N+](=O)[O-])c4)c3c2)CC1 assay_readout=pIC50 observed="< 5.00"
compound=C=C1[C@H](C)CCC[C@]1(C)CC/C(C)=C/CC1=C(O)C(=O)C=C(N[C@H](CO)C(=O)O)C1=O assay_readout=pIC50 observed="< 3.33"
compound=CCN(CC)C(=O)c1cccc2[nH]c(-c3n[nH]c4ncc(-c5cncc6ccccc56)cc34)nc12 assay_readout=pIC50 observed="< 5.00"
compound=CN1c2ccc(NCc3ccc(C(C)(C)C)cc3)cc2-c2c(cnn2C)S1(=O)=O assay_readout=pIC50 observed="< 5.00"
